# Tested on: Mahlavu cells
# measurement description: cells
# protocol conditions: Homo sapiens, 48 h, read-out: percentage of viable Mahlavu cells (cell viability)
readout name: viability at 100 µM

In plain terms, O=C(Nc1nnc2n1-c1ccccc1C(=O)N1CCC[C@@H]21)c1ccccc1 has a documented viability at 100 µM of > 75%

In plain terms, O=C(Nc1nnc2n1-c1ccccc1C(=O)N1CCC[C@@H]21)c1cccs1 has a documented viability at 100 µM of > 75%

In plain terms, O=C(Nc1nnc2n1-c1ccccc1C(=O)N1CCC[C@@H]21)c1cccc(C(F)(F)F)c1 has a documented viability at 100 µM of 2%

In plain terms, CC(C)(C)C(=O)Nc1nnc2n1-c1ccccc1C(=O)N1CCC[C@@H]21 has a documented viability at 100 µM of > 75%

In plain terms, COc1cccc(C(=O)Nc2nnc3n2-c2ccccc2C(=O)N2CCC[C@@H]32)c1 has a documented viability at 100 µM of 37%

In plain terms, N#Cc1cccc(C(=O)Nc2nnc3n2-c2ccccc2C(=O)N2CCC[C@@H]32)c1 has a documented viability at 100 µM of 36%

In plain terms, O=C(Nc1nnc2n1-c1ccccc1C(=O)N1CCC[C@@H]21)c1cccc(F)c1 has a documented viability at 100 µM of ~61%

In plain terms, O=C(Nc1nnc2n1-c1ccccc1C(=O)N1CCC[C@@H]21)c1cccnc1 has a documented viability at 100 µM of > 75%
